Tested on: [Clostridium] innocuum
Experiment: Antimicrobial activity against Clostridium innocuum by agar dilution method
Type: functional
Observation type: MIC90 (µg/mL)

# Structure smiles, Result value
data = [
    ("CC(=O)NC[C@H]1CN(c2ccc(N3CCOCC3)c(F)c2)C(=O)O1", 8),
    ("C[C@@H](O)[C@H]1C(=O)N2C(C(=O)O)=C(S[C@@H]3CN[C@H](CNS(N)(=O)=O)C3)[C@H](C)[C@H]12", 2),
    ("C[C@@H](O)[C@H]1C(=O)N2C(C(=O)O)=C(S[C@@H]3CN[C@H](C(=O)Nc4cccc(C(=O)O)c4)C3)[C@H](C)[C@H]12", 8),
    ("CO[C@@]1(NC(=O)Cc2cccs2)C(=O)N2C(C(=O)O)=C(COC(N)=O)CS[C@@H]21", 128),
]
